Could you please report measured composite z-score for the items listed next?
assay: small-molecule microarray binders of probe aShh, primary screen, biochemical, biotinylated probe, 635/667 nm fluorescence (AID 1114); settings: higher = more signal;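 note: probe is biotin-labelled aShh protein from a stem cell growth factor screen; measures binding of labelled protein to compounds printed on the slide; score merges feature fluorescence at 667 nm with signal-to-noise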
Answers are plain numbers.

Sample answers from the record:
{"compound": "O=C1[C@H]2[C@H]3[C@H](O)[C@H](O)CC(=NOCc4ccccc4)[C@@H]3CC[C@H]2C(=O)N1C1CCCCC1", "recorded.number": -0.265}
{"compound": "CC(C)CON=C1C[C@@H](O)[C@@H](O)[C@@H]2[C@@H]3C(=O)N(C[C@@H]4CCCO4)C(=O)[C@@H]3CC[C@H]12", "recorded.number": -0.345}

Batch request: composite z-score for each of the following compounds.
1. Cc1ccc(F)cc1S(=O)(=O)N[C@@H]1CCN(Cc2ccc(CC(C)C)cc2)C1
2. CCOC(=O)[C@H](Cc1ccccc1)NC(=O)CCC1CC(OC(=O)NCc2ccc3c(c2)OCO3)CC2(CCCC(COC(=O)NCc3cccc(C(F)(F)F)c3)O2)O1 (some centres undefined)
3. CC(CCN1CCc2nc(-c3ccccc3)c(-c3ccccc3)cc2C1)=NOC(C)CN1CCCCc2nc(C)c(C)cc21 (centres undefined)
4. CCOC(=O)[C@H](Cc1ccccc1)NC(=O)CCC1CC(OC(=O)NCCc2ccc(F)cc2)CC2(CCCC(COC(=O)NCC(c3ccccc3)c3ccccc3)O2)O1 (some centres undefined)
5. COc1ccc(O[C@H]2C=C[C@@H](c3ccccc3)O[C@@H]2COC(=O)CCC(C)=NOC(C)CN2CCCCc3nc(C)c(C)cc32)cc1 (some centres undefined)
6. CS(=O)(=O)CCOC(=O)C1=CC(CCCO)=CC(c2cccs2)N(Cc2cccc(OC(F)(F)F)c2)C=C1C(=O)OCCS(C)(=O)=O (centres undefined)

[-0.138, 0.108, -0.202, -0.0146, -0.138, 0.261]

* * *

Could you please report measured z-score for the items listed next?
test: S. cerevisiae RM11-1a growth modifiers, primary screen, strain RM11-1a, OD600, basal, 24 h (AID 1177); conditions: OD600, 24 h, higher = more signal, called active from +8 up or from −8 down;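 note: cultures grown under basal conditions with no added stressor; test concentration not given here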
Give bare numbers.

{"compound": "CC1CC/C=C\\[C@H]2OC34C=CCN(Cn5nnc6ccccc65)C(=O)[C@H]3N(CCO)C(=O)[C@@H]4C2C(=O)O1 (some centres not stated)", "z-score": -0.943}
{"compound": "CCN(CC)c1ccc(N2CC=CC34O[C@@H]5/C=C\\CCC(C)OC(=O)C5[C@H]3C(=O)N(CCCO)[C@@H]4C2=O)cc1 (some centres not stated)", "z-score": 1.21}
{"compound": "COCCCNC(=O)[C@@]1(C)c2ccccc2C(=O)N(Cc2ccc(OC(F)(F)F)cc2)[C@H]1c1ccc(CO)cc1", "z-score": -0.419}
{"compound": "CC(C)=NOCc1ccc(-c2cc(-c3ccccc3)no2)cc1", "z-score": -0.194}
{"compound": "CC(=O)OC[C@H]1O[C@H](C#CCCCc2ccccc2)C=C[C@@H]1OC(C)=O", "z-score": 0.291}
{"compound": "COC(=O)[C@H](C)NC(=O)[C@@H](C)CO", "z-score": 0.312}
{"compound": "CC(C)[C@@H](OCc1ccccc1)[C@H](C)C=NOC[C@@H](C)[C@H](OCc1ccccc1)C(C)C", "z-score": -0.089}
{"compound": "CC(C)NC(=O)[C@@H]1c2ccccc2C(=O)N(CC23CC4CC(CC(C4)C2)C3)[C@H]1c1ccc(CO)cc1", "z-score": -1.52}
{"compound": "O=C1CCCC=C1C(O)CCOCc1ccccc1 (configuration not stated)", "z-score": -0.735}
{"compound": "CC(=O)OC[C@H]1O[C@H](CCON=C[C@@H](C)[C@H](OCc2ccccc2)C(C)C)C=C[C@@H]1OC(C)=O", "z-score": -0.399}

Batch request: z-score for each of the following compounds.
1. CC1CC/C=C\[C@H]2OC34C=CCN(C(C)C)C(=O)[C@H]3N(CCCO)C(=O)[C@@H]4C2C(=O)O1 (some centres not stated)
2. COC(=O)CC=C[C@H](C)[C@@H](OCc1ccccc1Br)C(C)C
3. C#CCCCON=C1C[C@@H](O)[C@@H](O)[C@@H]2[C@@H]3C(=O)N(c4cccc(Oc5ccccc5)c4)C(=O)[C@@H]3CC[C@@H]12
4. C[C@H](c1ccccc1)N1C(=O)[C@H]2[C@@H]3C(=CC[C@H]2C1=O)C(=O)[C@H]1O[C@H]1[C@H]3O
5. CO[C@H]([C@@H](C)[C@H](OC)c1ccccc1)[C@H](C)[C@@H](OC)[C@H](C)C(C)=O
6. [N-]=[N+]=Nc1ccccc1C[C@@]1(C(N)=O)N=C(c2ccc(OCCCO)cc2)O[C@@H]1c1ccccc1
7. O=C1[C@H]2[C@H]3[C@H](O)[C@H](O)CC(=NOCc4ccccc4)[C@@H]3CC[C@H]2C(=O)N1Cc1ccccc1

1: -0.467; 2: -0.158; 3: -0.293; 4: -0.141; 5: 0.135; 6: -0.364; 7: -0.118
